The compounds listed here are annotated with their GI50.
# Test system: HCC 2998
# assay-text: Growth inhibitory activity against colon cancer HCC2998 cell line was determined
# Assay type: functional
# cond: Homo sapiens
metric-name: GI50 (µM)

{"entry-smiles": "O=C(Oc1ccc(Cl)cc1)c1ccccc1Nc1ccnc(C(F)(F)F)c1", "metric-name": "GI50", "recorded-number": 13}
{"entry-smiles": "CCOC(=O)CNC(=O)c1ccccc1Nc1ccnc(C(F)(F)F)c1", "metric-name": "GI50", "recorded-number": 71}
{"entry-smiles": "O=C(Oc1cccc(Cl)c1)c1ccccc1Nc1ccnc(C(F)(F)F)c1", "metric-name": "GI50", "recorded-number": 3.5}
{"entry-smiles": "O=C(Oc1cccnc1)c1ccccc1Nc1ccnc(C(F)(F)F)c1", "metric-name": "GI50", "recorded-number": 0.36}
{"entry-smiles": "O=C(Oc1ccc(Cl)cc1Cl)c1ccccc1Nc1ccnc(C(F)(F)F)c1", "metric-name": "GI50", "recorded-number": 3.2}
{"entry-smiles": "O=C(Oc1ccccc1Cl)c1ccccc1Nc1ccnc(C(F)(F)F)c1", "metric-name": "GI50", "recorded-number": 2.2}

###

# Tested on: SW-620
# assay-text: Growth inhibitory activity against colon cancer SW-620 cell line was determined
# Format: functional
# cond: Homo sapiens
metric-name: log10 GI50 (log10 of the value in µM)

{"entry-smiles": "COc1cccc(OC(=O)c2ccccc2Nc2ccnc(C(F)(F)F)c2)c1", "log10 GI50": 0.64}
{"entry-smiles": "O=C(Oc1c(Cl)cc(Cl)cc1Cl)c1ccccc1Nc1ccnc(C(F)(F)F)c1", "log10 GI50": 0.66}
{"entry-smiles": "O=C(Oc1ccccc1Cl)c1ccccc1Nc1ccnc(C(F)(F)F)c1", "log10 GI50": -0.44}
{"entry-smiles": "O=C(Oc1cccc(Cl)c1)c1ccccc1Nc1ccnc(C(F)(F)F)c1", "log10 GI50": 0.64}
{"entry-smiles": "CCOC(=O)CNC(=O)c1ccccc1Nc1ccnc(C(F)(F)F)c1", "log10 GI50": 1.30}
{"entry-smiles": "O=C(Oc1cccnc1)c1ccccc1Nc1ccnc(C(F)(F)F)c1", "log10 GI50": -1.22}
{"entry-smiles": "O=C(Oc1ccc(Cl)cc1Cl)c1ccccc1Nc1ccnc(C(F)(F)F)c1", "log10 GI50": 0.66}
{"entry-smiles": "O=C(Oc1ccc(Cl)cc1)c1ccccc1Nc1ccnc(C(F)(F)F)c1", "log10 GI50": 0.82}

###

# Tested on: ACHN
# assay-text: Growth inhibitory activity against Renal cancer ACHN cell line was determined
# Type: functional
# cond: Homo sapiens
The compounds listed here are annotated with their GI50.

{"entry-smiles": "O=C(Oc1ccc(Cl)cc1Cl)c1ccccc1Nc1ccnc(C(F)(F)F)c1", "GI50 / µM": 13}
{"entry-smiles": "O=C(Oc1ccc(Cl)cc1)c1ccccc1Nc1ccnc(C(F)(F)F)c1", "GI50 / µM": 11}
{"entry-smiles": "COc1cccc(OC(=O)c2ccccc2Nc2ccnc(C(F)(F)F)c2)c1", "GI50 / µM": 3.4}
{"entry-smiles": "CCOC(=O)CNC(=O)c1ccccc1Nc1ccnc(C(F)(F)F)c1", "GI50 / µM": 34}
{"entry-smiles": "O=C(Oc1c(Cl)cc(Cl)cc1Cl)c1ccccc1Nc1ccnc(C(F)(F)F)c1", "GI50 / µM": 2.4}
{"entry-smiles": "O=C(Oc1cccnc1)c1ccccc1Nc1ccnc(C(F)(F)F)c1", "GI50 / µM": 0.26}
{"entry-smiles": "O=C(Oc1ccccc1Cl)c1ccccc1Nc1ccnc(C(F)(F)F)c1", "GI50 / µM": 0.28}
